Hello, the source for this data is ChEMBL document CHEMBL1777690, in case you need it.

Assay text: Volume of distribution at steady state in Wistar rat at 1 mg/kg, iv
Type: ADME, organism-based
Design: dose 1 mg/kg, route intravenous
Experimental context: in vivo, read-out: Vdss
Property name: Vd

chem_smiles=COc1cc(-c2nc3ccc(-c4cccc(CN(C)C)c4)cc3c(=O)n2CC(=O)NC(C)C)ccc1F property_name=Vd measured="4.85 L/kg"
